EXPERIMENTAL_DETAILS: chemical genetic growth profiling, strain panel (AID 1159580);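 also: tested at 20 µM; growth read once vehicle control cultures reached saturation at 30 °C; 1 = growth at the plate median or of vehicle wells; lower values mean less growth of the strain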
RUN_PARAMETERS: S. cerevisiae deletion strains, growth OD, locus YIL125W, strain kgd1, stronger effect = lower value
Screen size: about 5,500 compounds; about 2,000 (36%) were called active. About 18% were inconclusive and are not listed. The list shows a part of the results.

COMPOUND	normalized growth
COc1cc2c(cc1OC)C1C(=O)c3c(OC)cc4c(c3OC1CO2)CCC(C)(C)O4 (stereo unspecified)	0.983
COc1ccc(OC)c(C(O)C(C)N)c1 (stereo unspecified)	0.995
CCOC(=O)C(C)(C)Oc1ccc(Cl)cc1	0.998
COc1ccc2cc([C@H](C)CO)ccc2c1	0.974
CC(=O)C1CCC2C3CC(=O)C4=CC(=O)CCC4(C)C3CCC12C (stereo unspecified)	0.983
CC(C)OC(=O)C(C)(C)Oc1ccc(C(=O)c2ccc(Cl)cc2)cc1	0.991
COc1ccc2c(c1OC)C(=O)O[C@@H]2[C@H]1c2cc3c(cc2CCN1C)OCO3	1.02
CC(N)C(=O)OC(C)(C)Cc1ccc(Cl)cc1 (stereo unspecified)	0.984
COc1cc2c(cc1OC)[C@@H]1C(=O)c3ccc(OC)c(CC=C(C)C)c3O[C@@H]1CO2	0.995
CC(=O)OCC(=O)[C@@]1(O)CCC2C3CCC4=CC(=O)CC[C@]4(C)C3C(=O)C[C@@]21C (stereo partly specified)	1.02
CCC(=O)O[C@H]1CCC2C3CCC4=CC(=O)CC[C@]4(C)C3CC[C@@]21C (stereo partly specified)	0.975
C=C(C)[C@@H]1[C@H]2OC(=O)[C@@H]1[C@]1(O)C[C@H]3O[C@]34C(=O)O[C@H]2[C@]14C	0.99
CCOC(=O)C(=O)C1(C(=O)OCC)Oc2cc(OC)cc(OC)c2C(=O)C1c1ccccc1 (stereo unspecified)	0.971
COc1ccc2c(c1)O[C@@H]1COc3cc(OC)c(OC)cc3[C@@H]1C2=O	0.989
COc1cc2c(cc1OC)[C@@H]1C(=O)c3ccc(O)c(CC=C(C)C)c3O[C@@H]1CO2	0.994
CC(=O)N[C@@H](CC(C)C)C(=O)O	0.992
COc1cc2c(cc1OC)C1C(=O)c3c(cc4c(c3O)C=CC(C)(C)O4)OC1CO2 (stereo unspecified)	1
C=C(C)C1CNC(C(=O)O)C1CC(=O)O (stereo unspecified)	1.02
CS(=O)(=O)c1ccc(C2=C(c3ccccc3)C(=O)OC2)cc1	0.999
COc1ccc2c(c1OC)C(=O)O[C@H]2[C@H]1c2cc3c(cc2CCN1C)OCO3	1.01
CC(=O)OCC(=O)[C@H]1CCC2C3CCC4=CC(=O)CC[C@]4(C)C3CC[C@@]21C (stereo partly specified)	0.955

====

EXPERIMENTAL_DETAILS: chemical genetic growth profiling, strain panel (AID 1159580);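 also: tested at 20 µM; growth read once vehicle control cultures reached saturation at 30 °C; 1 = growth at the plate median or of vehicle wells; lower values mean less growth of the strain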
RUN_PARAMETERS: S. cerevisiae deletion strains, growth OD, locus YLL041C, strain sdh2, stronger effect = lower value
The whole screen tested about 5,500 compounds, of which about 2,000 (36%) were called active. Inconclusive results (about 18%) are left out. The list shows a part of the results.
OBSERVED_PROPERTY: normalized growth

COMPOUND	ENDPOINT_RESULT
CC1=C(/C=C/C(C)=C/C=C/C(C)=C/C=C/C=C(C)/C=C/C=C(C)/C=C/C2=C(C)C(=O)CCC2(C)C)C(C)(C)CCC1=O	0.998
CC(=O)N[C@@H](CC(C)C)C(=O)O	0.995
COc1cc(O)c(C(=O)/C=C/c2ccc(O)c(OC)c2)c(OC)c1	0.961
C[C@]12CCC(=O)C=C1CCC1C2CC[C@@]2(C)C1CC[C@@H]2O (stereo partly specified)	0.99
CC1=C(/C=C/C(C)=C/C=C/C(C)=C/C=C/C=C(C)/C=C/C=C(C)/C=C/C(=O)[C@]2(C)C[C@@H](O)CC2(C)C)C(C)(C)C[C@H](O)C1	1.03
COc1cc(NC(C)CCCN)c2ncccc2c1 (stereo unspecified)	1
O=C(O)C1(O)C[C@@H](O)C(O)[C@H](O)C1 (stereo partly specified)	1
CC1CC2C3CC(F)C4=CC(=O)C=CC4(C)C3(F)C(O)CC2(C)C1(O)C(=O)CO (stereo unspecified)	0.999
CC(=O)O[C@@H]1C[C@@]2(C)C(CC[C@@H]2C(C)=O)C2CCC3=CC(=O)CC[C@]3(C)C21 (stereo partly specified)	1
C=Cc1c2[nH]c(c1C)C=c1[nH]c(c(C)c1C=C)=CC1N=C(C=c3[nH]c(c(C)c3CCC(=O)O)=C2)C(CCC(=O)O)=C1C (stereo unspecified)	1.02
COc1cc(O)c(C(=O)/C=C/c2ccc(OC)c(O)c2)c(OC)c1	1.01
CCOC(=O)[C@H](CCc1ccccc1)N[C@H]1CCc2ccccc2N(CC(=O)O)C1=O	0.986
COc1ccc(OC)c(C(O)C(C)N)c1 (stereo unspecified)	1
CN1CCC(=C2c3ccccc3CCc3sccc32)CC1	0.961
CCN(CC)CCCC(C)Nc1c2ccc(Cl)cc2nc2ccc(OC)cc12 (stereo unspecified)	1.03
CN(C)c1ccc(C(=C2C=CC(=[N+](C)C)C=C2)c2ccc(N(C)C)cc2)cc1	0.468
COC1=CC(=O)C[C@@H](C)[C@]12Oc1c(Cl)c(OC)cc(OC)c1C2=O	0.996
c1ccc(N=Nc2ccccc2)cc1	0.989
COc1cc(/C=C/C(=O)/C=C(O)/C=C/c2ccc(O)c(OC)c2)ccc1O	0.0974
COc1ccc2cc([C@H](C)C(=O)O)ccc2c1	0.971
CCOC(=O)CCC(=O)O[C@H]1[C@H](O[C@@H]2[C@@H](C)[C@H](O[C@H]3C[C@@](C)(OC)[C@@H](O)[C@H](C)O3)[C@@H](C)C(=O)O[C@H](CC)[C@@](C)(O)[C@H](O)[C@@H](C)C(=O)[C@H](C)C[C@@]2(C)O)O[C@H](C)C[C@@H]1N(C)C	1
NC(=O)c1ccc[n+]([C@@H]2O[C@H](COP(=O)([O-])OP(=O)(O)OC[C@H]3O[C@@H](n4cnc5c(N)ncnc54)[C@H](O)[C@@H]3O)[C@@H](O)[C@H]2O)c1	1.04
CC(C)OC(=O)C(C)(C)Oc1ccc(C(=O)c2ccc(Cl)cc2)cc1	0.975
S=c1nc[nH]c2nc[nH]c12	0.989
CC(C(=O)O)c1cccc(C(=O)c2ccccc2)c1 (stereo unspecified)	1.01
CCCCCCCCCCCCCCCC(=O)OC/C=C(C)/C=C/C=C(C)/C=C/C1=C(C)CCCC1(C)C	1.02
OCCN1C[C@@H](O)[C@@H](O)C(O)C1CO (stereo partly specified)	1
CC1=C(C/C=C(\C)CCC[C@H](C)CCC[C@H](C)CCCC(C)C)C(=O)c2ccccc2C1=O	0.99
CC(C)c1c(C(=O)c2ccccc2)c(-c2ccccc2)c(-c2ccc(F)cc2)n1CC[C@@H](O)C[C@@H](O)CC(=O)O	0.981
CS(=O)(=O)c1ccc(C2=C(c3ccccc3)C(=O)OC2)cc1	0.994
CCC(=O)O[C@H]1[C@H](O[C@@H]2[C@@H](C)[C@H](O[C@H]3C[C@@](C)(OC)[C@@H](O)[C@H](C)O3)[C@@H](C)C(=O)O[C@H](CC)[C@@](C)(O)[C@H](O)[C@@H](C)C(=O)[C@H](C)C[C@@]2(C)O)O[C@H](C)C[C@@H]1N(C)C	1
CCN(CC)CCNC(=O)c1cc(Br)c(N)cc1OC	0.98
CC(N)C(=O)OC(C)(C)Cc1ccc(Cl)cc1 (stereo unspecified)	1.02
ClC1=C(Cl)C2(Cl)C3C4C=CC(C4)C3C1(Cl)C2(Cl)Cl (stereo unspecified)	0.994
CC1=C(/C=C/C(C)=C/C=C/C(C)=C/C=C/C=C(C)/C=C/C=C(C)/C=C/C2=C(C)C(=O)C(O)CC2(C)C)C(C)(C)CC(O)C1=O (stereo unspecified)	1.03
CN1CCC(=C2c3ccccc3CC(=O)c3sccc32)CC1	0.986
